target: EeAChE PAS (Electrophorus electricus); construct: purchased Sigma-Aldrich type VI-S; assay: biochemical; format: binding; settings: compound 3 µM; EeAChE 7 µM, PI 8 µM; means ± SEM (n = 3); read-out: PI Displacement, 3 µM
Sequence (O42275 24-633): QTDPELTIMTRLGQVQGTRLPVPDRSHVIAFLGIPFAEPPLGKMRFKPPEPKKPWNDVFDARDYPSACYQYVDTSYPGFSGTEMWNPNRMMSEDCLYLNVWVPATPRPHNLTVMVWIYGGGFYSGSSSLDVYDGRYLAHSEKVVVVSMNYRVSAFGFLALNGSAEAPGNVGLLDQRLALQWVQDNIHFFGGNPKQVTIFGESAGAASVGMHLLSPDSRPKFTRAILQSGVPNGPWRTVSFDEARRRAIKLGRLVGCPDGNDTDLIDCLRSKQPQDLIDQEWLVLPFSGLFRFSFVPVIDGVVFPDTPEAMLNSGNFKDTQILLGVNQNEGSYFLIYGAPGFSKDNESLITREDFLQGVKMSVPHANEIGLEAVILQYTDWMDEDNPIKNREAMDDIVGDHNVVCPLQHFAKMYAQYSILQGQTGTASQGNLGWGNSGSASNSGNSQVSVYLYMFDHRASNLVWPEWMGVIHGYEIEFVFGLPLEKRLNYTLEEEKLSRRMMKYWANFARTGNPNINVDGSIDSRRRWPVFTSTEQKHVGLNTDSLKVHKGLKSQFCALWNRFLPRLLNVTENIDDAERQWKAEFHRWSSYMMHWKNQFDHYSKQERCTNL
Property label: inhibition at 3 µM (%)
Use % as the unit, but write only the number.

Guide cases for inhibition at 3 µM, answers given:
Compound	Study target	inhibition at 3 µM / %
COc1ccc2c(c1)c1c(n2CCC(=O)N2c3ccc(N(C)C)cc3Sc3cc(N(C)C)ccc32)CCC(C)C1 (stereo not drawn)	EeAChE PAS (Electrophorus electricus)	14.8
CN(C)c1ccc2c(c1)Sc1cc(N(C)C)ccc1N2C(=O)CCn1c2c(c3ccccc31)CCCCC2	EeAChE PAS (Electrophorus electricus)	10.3

Next compound, inhibition at 3 µM to be filled in.
Lab book: inhibition at 3 µM of "CN(C)c1ccc2c(c1)Sc1cc(N(C)C)ccc1N2C(=O)CCn1c2c(c3ccccc31)CCC2" noted as 12
